Listing of entries alongside the reported pIC50.
tested.on: Corticotropin-releasing factor receptor 1 (Homo sapiens, UniProt P34998)
Sequence (P34998 whole entry): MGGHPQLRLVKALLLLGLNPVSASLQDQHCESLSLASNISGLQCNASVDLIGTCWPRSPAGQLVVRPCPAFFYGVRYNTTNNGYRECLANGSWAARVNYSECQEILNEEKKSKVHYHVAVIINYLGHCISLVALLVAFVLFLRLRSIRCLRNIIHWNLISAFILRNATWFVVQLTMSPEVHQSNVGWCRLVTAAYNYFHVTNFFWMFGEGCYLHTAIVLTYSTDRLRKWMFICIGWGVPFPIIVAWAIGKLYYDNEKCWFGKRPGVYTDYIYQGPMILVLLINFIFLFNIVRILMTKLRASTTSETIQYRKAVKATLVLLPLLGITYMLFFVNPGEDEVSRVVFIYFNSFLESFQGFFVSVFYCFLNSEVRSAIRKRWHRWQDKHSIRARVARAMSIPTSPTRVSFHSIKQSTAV
protocol.details: Displacement of [125I]Tyr0sauvagine from human CRF1 receptor expressed in HEK293 cell membrane after 120 mins by gamma scintillation counting analysis
Assay type: cell membranes
Reminder that pIC50 means the negative base-10 logarithm of the concentration expressed in mol/L.

// known answers, use as guide
CCCCN(CC)c1nc(C)nc2c1c(C)c(C)n2-c1c(C)cc(C)cc1C 7.73
CCSc1c(Nc2c(C)cc(C)cc2C)nc(C)nc1N(CCOC)CCOC 6.23
CCCN(CC1CC1)c1nc(C)nc(Nc2c(C)cc(C)cc2C)c1SCC 6.61
CCCN(CCC)c1nc(C)nc(Nc2c(C)cc(C)cc2C)c1SCC 6.27

If you can, please state the reported pIC50 value of COCCN(CCOC)c1nc(C)nc(Nc2c(C)cc(C)cc2C)c1SC . 6.56

All figures here come from ChEMBL document CHEMBL3232827.
